target: T1, Biotinylated human TSLP (human, biotinylated); experiment: SPR, biotinylated hTSLP on streptavidin chip; Example 148, Ac-(SEQ ID NO: 107)
T1 construct: also called hTSLP; thymic stromal lymphopoietin
T1 sequence (chain, as listed by the source limits assumed): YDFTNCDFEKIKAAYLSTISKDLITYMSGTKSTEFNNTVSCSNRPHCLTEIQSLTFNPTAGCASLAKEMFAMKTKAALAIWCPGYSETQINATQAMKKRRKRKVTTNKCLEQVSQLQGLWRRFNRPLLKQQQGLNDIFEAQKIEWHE
measure: Kd (nM)
Numbers only, in nM.

// field: Kd; key: CQWLEDCWRGXC (N-term acetyl; CQWLEDCWRG[BnA]C as printed; 3 Cys on TATA) [Example 148] ; value = 1100
